Values from ChEMBL document CHEMBL1149774

Reported TGI values for a set of molecules
- Tested on: BT-549
- assay_comment: Growth inhibition of human BT549 cells after 48 hrs by SRB staining method
- Type: functional
- experimental_parameters: BT-549, 48 h, read-out: pTGI (converted)
The figure you give is taken to be in µM; do not add the unit.

Nc1cc(N)c2nc(-c3ccccc3)c(Nc3ccc(F)cc3)nc2c1
26.9
COc1cc(Nc2nc3cc(N)cc(N)c3nc2-c2ccccc2)cc(OC)c1
31.6
COc1ccc(Nc2nc3cc(N)cc(N)c3nc2-c2ccccc2)cc1OC
81.3

Query: State its TGI: COc1cc(Nc2nc3cc(N)cc(N)c3nc2-c2ccccc2)cc(OC)c1OC
Reply: 17

Query: State its TGI: COc1ccc(Nc2nc3cc(N)cc(N)c3nc2-c2ccccc2)cc1
Reply: 31.6

###

Reported TGI values for a set of molecules
- Test system: SF-539
- assay_comment: Growth inhibition of human SF539 cells after 48 hrs by SRB staining method
- Type: functional
- experimental_parameters: SF-539, 48 h, read-out: pTGI (converted)
The figure you give is taken to be in µM; do not add the unit.

COc1ccc(Nc2nc3cc(N)cc(N)c3nc2-c2ccccc2)cc1OC
37.2
Nc1cc(N)c2nc(-c3ccccc3)c(Nc3ccc(Cl)c(Cl)c3)nc2c1
35.5
COc1cc(Nc2nc3cc(N)cc(N)c3nc2-c2ccccc2)cc(OC)c1OC
28.8

Next, consider the following molecule.
Query: State its TGI: Nc1cc(N)c2nc(-c3ccccc3)c(Nc3ccc(F)cc3)nc2c1
Reply: 24.5

###

- Test system: OVCAR-4
- assay_comment: Growth inhibition of human OVCAR4 cells after 48 hrs by SRB staining method
- Assay type: functional
- experimental_parameters: OVCAR-4, 48 h
Reported LC50 values for a set of compounds

For orientation, consider the following solved cases.
COc1cc(Nc2nc3cc(N)cc(N)c3nc2-c2ccccc2)cc(OC)c1
> 100 µM
CCOC(=O)CCC(NC(=O)c1ccc(Nc2nc3cc(N)cc(N)c3nc2-c2ccccc2)cc1)C(=O)OCC (stereo unspecified)
> 100 µM
Nc1cc(N)c2nc(-c3ccccc3)c(Nc3ccc(Cl)c(Cl)c3)nc2c1
> 100 µM
COc1ccc(Nc2nc3cc(N)cc(N)c3nc2-c2ccccc2)cc1
46.8 µM
COc1ccc(Nc2nc3cc(N)cc(N)c3nc2-c2ccccc2)cc1OC
> 100 µM

Next, consider the following compound.
Query: State its LC50: COc1cc(Nc2nc3cc(N)cc(N)c3nc2-c2ccccc2)cc(OC)c1OC
Reply: 25.7 µM

###

- Tested on: SR
- assay_comment: Growth inhibition of human SR cells after 48 hrs by SRB staining method
- Format: functional
readout_kind: GI50

COc1ccc(Nc2nc3cc(N)cc(N)c3nc2-c2ccccc2)cc1OC
2.69 µM

Query: State its GI50: Nc1cc(N)c2nc(-c3ccccc3)c(Nc3ccc(Cl)c(Cl)c3)nc2c1
Reply: 2.57 µM

Query: State its GI50: COc1ccc(Nc2nc3cc(N)cc(N)c3nc2-c2ccccc2)cc1
Reply: 19.1 µM

Query: State its GI50: COc1cc(Nc2nc3cc(N)cc(N)c3nc2-c2ccccc2)cc(OC)c1OC
Reply: 3.31 µM

Query: State its GI50: Nc1cc(N)c2nc(-c3ccccc3)c(Nc3ccc(F)cc3)nc2c1
Reply: 5.37 µM

Query: State its GI50: COc1cc(Nc2nc3cc(N)cc(N)c3nc2-c2ccccc2)cc(OC)c1
Reply: 5.62 µM
